# experimental-target: T1, Bre1-LR (Bre1 residues 227–700, LBD and RING domains), 6× histidine tag (budding yeast, UniProt Q07457 227-700)
# T1 construct: two Bre1 polypeptides form the dimeric coiled-coils of the LBD in the crystal structure; also called WT; source: E. coli BL21 Rosetta (DE3), purified (Ni-NTA, heparin, gel filtration)
# T1 sequence (looked up): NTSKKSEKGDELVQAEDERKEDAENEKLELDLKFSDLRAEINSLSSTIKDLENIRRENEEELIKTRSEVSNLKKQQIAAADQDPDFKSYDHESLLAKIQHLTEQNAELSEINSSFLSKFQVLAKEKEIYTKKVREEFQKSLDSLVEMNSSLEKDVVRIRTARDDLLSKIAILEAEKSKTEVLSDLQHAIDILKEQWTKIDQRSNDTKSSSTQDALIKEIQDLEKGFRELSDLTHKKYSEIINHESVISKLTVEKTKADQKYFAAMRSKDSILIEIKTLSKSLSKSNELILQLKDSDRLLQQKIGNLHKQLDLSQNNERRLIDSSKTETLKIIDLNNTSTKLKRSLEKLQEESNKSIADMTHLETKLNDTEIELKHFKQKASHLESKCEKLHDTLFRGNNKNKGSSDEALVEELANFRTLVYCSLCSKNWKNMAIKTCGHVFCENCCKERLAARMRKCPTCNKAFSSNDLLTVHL
# test-details: ITC; Lge1-CT (50–60 μM) injected into Bre1-LR (15 μM); 25°C, 20 mM TRIS (pH 7.5), 200 mM sodium chloride
# cond: both partners purified
quantity-measured: Kd (nM)
Answer format: numeric, nM implied, no suffix.

What does the record list as Kd for Lge1-CT K324E (domain or fragment, budding yeast, UniProt Q02796 261-332, looked up, Lge1, budding yeast, residues 261-332; source: E. coli BL21 Rosetta (DE3): cleared cell extract on chitin resin (pull-down); purified (chitin, heparin, gel filtration) for ITC and SPR) KNVKKTNNTESECEKAREVFKESDSIDSALEELNLKINSNELELRLLNNQCDKHALNIQLTQEELDSLLLMQ ? 8.77

What does the record list as Kd for Lge1-CT I318D (domain or fragment, budding yeast, UniProt Q02796 261-332, looked up, Lge1, budding yeast, residues 261-332; source: E. coli BL21 Rosetta (DE3): cleared cell extract on chitin resin (pull-down); purified (chitin, heparin, gel filtration) for ITC and SPR) KNVKKTNNTESECEKAREVFKESDSIDSALEELNLKINSNELELRLLNNQCDKHALNDQLTQEKLDSLLLMQ ? 21.1

What does the record list as Kd for Lge1-CT L325N (domain or fragment, budding yeast, UniProt Q02796 261-332, looked up, Lge1, budding yeast, residues 261-332; source: E. coli BL21 Rosetta (DE3): cleared cell extract on chitin resin (pull-down); purified (chitin, heparin, gel filtration) for ITC and SPR) KNVKKTNNTESECEKAREVFKESDSIDSALEELNLKINSNELELRLLNNQCDKHALNIQLTQEKNDSLLLMQ ? 8.06

What does the record list as Kd for Lge1-CT L316N (domain or fragment, budding yeast, UniProt Q02796 261-332, looked up, Lge1, budding yeast, residues 261-332; source: E. coli BL21 Rosetta (DE3): cleared cell extract on chitin resin (pull-down); purified (chitin, heparin, gel filtration) for ITC and SPR) KNVKKTNNTESECEKAREVFKESDSIDSALEELNLKINSNELELRLLNNQCDKHANNIQLTQEKLDSLLLMQ ? 52.2

What does the record list as Kd for Lge1-CT K313E/H314E (domain or fragment, budding yeast, UniProt Q02796 261-332, looked up, Lge1, budding yeast, residues 261-332; source: E. coli BL21 Rosetta (DE3): cleared cell extract on chitin resin (pull-down); purified (chitin, heparin, gel filtration) for ITC and SPR) KNVKKTNNTESECEKAREVFKESDSIDSALEELNLKINSNELELRLLNNQCDEEALNIQLTQEKLDSLLLMQ ? 33.9
